molecular target: T1, ESO157 homolog 2 peptide (…)/HLA-A*02:01 on T2 cells (human); assay: FACS, phage on T2 cells, 50 ug/ml peptide;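 further: binding of phage clones to peptide/MHC complexes detected by flow cytometry after staining with an anti-M13 antibody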
T1 construct: also called ESO157 H2
ENDPOINT_LABEL: MFI
Could you keep your reply to the number by itself?

Query string: // lookup MFI for phage clone 35-8, affinity maturation variant of clone #35 (scFv, V domains shown) VH: QVPLVQSGAEVKKPGSSVKVSCKASGDTFSSYYISWVRQAPGQGLEWMGRIIPILGIANYAQKYQGRVTLSADKSTSTSYMELNNLRSEDTAVYYCARDWSYSIDYWGQGTLVTVSS VL: QSVVTQPPSVSAAPGQKVTISCSGSSSNIGNNYVSWYQQLPGTAPKLLIYDNNKRPSGIPDRFSGSKSGTSATLGITGLQTGDEADYYCGTWDSSLSAWVFGGGTKLTVL
Result string: 18.7

Query string: // lookup MFI for phage clone 35-12, affinity maturation variant of clone #35 (scFv, V domains shown) VH: QVPLVQSGAEVKKPGSSVRVSCKASGDTFSNYSISWVRQAPGQGLEWMGRIIPILGIANYAQKYQGRVTLSADKSTSTSYMELNSLRSEDTAVYYCARDWSYSIDYWGQGTLVTVSS VL: QSVVTQPPSVSAAPGQKVTISCSGSSSNIGNNYVSWYQQLPGTAPKLLIYDNNKRPSGIPDRFSGSKSGTSTTLGITGLQTGDEADYYCGTWDSSLSAWVFGGGTKLTVLG
Result string: 19.2

The reported measurements were obtained from patent US20190382504A1.
